Provenance of the data: the supplement of paper PMC10567573

Please provide measured protein stability index for the entries that follow.
B1: ZNF649 (parent)
chain: LTEHKRIHTGKKPHVCSLCGKAFY

Variants of: B1
Test Details: protein stability index of a GFP-peptide fusion (GPS, HEK-293T) (PSI 1-6); higher = more stable;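 also: lentivirally expressed fusions sorted by FACS into six bins by GFP to DsRed ratio, PSI derived from sequencing read proportions per bin multiplied by bin number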
Measurement Context: c terminus: a fixed tail appended
One number for each entry.

Mutant Id	Endpoint Value
C16D	3.15
H4M	2.47
E3K	2.93

Hello, I would appreciate it if you could give protein stability index for each entry below.
1. H4K
2. V15C
3. R6Q
4. T9M
5. K12S
6. K11W

1: 2.28; 2: 2.6; 3: 4.11; 4: 2.85; 5: 1.78; 6: 3.42
